System: Trypanosoma brucei rhodesiense
EXPERIMENT: Antiprotozoal activity against trypomastigote form of Trypanosoma brucei rhodesiense STIB900 assessed as parasite growth inhibition after 72 hrs by Alamar blue assay
Format: functional, organism-based
CONDITIONS_USED: STIB900, 72 h
REPORTED_PROPERTY: pIC50
Worth noting: pIC50 values are minus log10 of concentrations stated in mol/L.

- COc1nc2ccc(Br)cc2c2c1C(C)(OC(=O)N(C)C)c1ccccc1-2 (stereo not drawn): 5.28
- COc1cccc(N2CCN(CC(O)COC3(C)c4ccccc4-c4c3c(N3CCN(C(c5ccccc5)c5ccccc5)CC3)nc3ccc(Br)cc43)CC2)c1 (stereo not drawn): 6.07
- COc1nc2ccc(Br)cc2cc1C(c1ccccc1)n1cnc([N+](=O)[O-])c1 (stereo not drawn): 6.36

Retrieve pIC50 on Trypanosoma brucei rhodesiense; query CC(C)(C)OC(=O)N1CCCC1C(=O)O/N=C1\c2ccccc2-c2c1c(-n1ccnc1)nc1ccc(Br)cc21 (stereo not drawn)
5.36

State pIC50 (Trypanosoma brucei rhodesiense) of "O=C1c2ccccc2-c2c1c(Nc1ccncc1)nc1ccc(Br)cc21" .
6.60

Retrieve pIC50 on Trypanosoma brucei rhodesiense; query CC1(O)c2ccccc2-c2c1c(-n1ccnc1)nc1ccc(Br)cc21 (stereo not drawn)
5.23

Check Trypanosoma brucei rhodesiense data and give pIC50 for CCCCC(=O)OC1(C)c2ccccc2-c2c1c(-n1ccnc1)nc1ccc(Br)cc21 (stereo not drawn) .
5.24

Provide the reported pIC50 (system: Trypanosoma brucei rhodesiense) for CC(C)(C)OC(=O)NC(C(=O)O/N=C1\c2ccccc2-c2c1c(N1CCN(c3ccccn3)CC1)nc1ccc(Br)cc21)C(C)(C)C (stereo not drawn)
5.87

// fetch pIC50; item: O=[N+]([O-])c1ccc2nc(Oc3ccc(F)cc3C(O)Cn3ccnc3)c(Cc3ccccc3)cc2c1 (stereo not drawn) ; system: Trypanosoma brucei rhodesiense
5.74

Write down the reported pIC50 (system: Trypanosoma brucei rhodesiense) of COc1ccc(NC(=S)Nc2ccc3nc(Oc4ccc(F)cc4C(C)O)c(Cc4ccccc4)cc3c2)cc1 (stereo not drawn)
5.88

// output pIC50; input CC(c1cc(F)ccc1Oc1nc2ccc(-n3cc(-c4ccccc4)nn3)cc2cc1Cc1ccccc1)n1ccnc1 (stereo not drawn) ; system Trypanosoma brucei rhodesiense
5.69

Return reported pIC50 for target or system Trypanosoma brucei rhodesiense, item COc1cccc(NC(=O)Nc2ccc3nc(Oc4ccc(F)cc4C(C)O)c(Cc4ccccc4)cc3c2)c1 (stereo not drawn) .
5.68

State measured pIC50 of the compound CC(O)c1cc(F)ccc1Oc1nc2ccc(NS(=O)(=O)c3cccc(C(F)(F)F)c3)cc2cc1Cc1ccccc1 (stereo not drawn) with Trypanosoma brucei rhodesiense.
5.84
